biological target: KRAS E62C/G12D (Homo sapiens, UniProt P01116, E62C/G12D); construct: made in house; experiment: Covalent modification of KRAS mutant by competition probes (TOF mass spectrometry, Agilent RapidFire); format: binding; conditions: probe 30 μM
readout-kind: % Covalent Modification with Indicated Protein at 6 hr, E62C/G12D (%)

C=CS(=O)(=O)NC1CCN(c2nc(N3CCN(C(C)=O)CC3)c3cc(Cl)c(-c4c(O)cccc4F)c(F)c3n2)C1 (stereo not shown) [CP-003]
11
C=CS(=O)(=O)N1CCC(Nc2nc(N3CCN(C(C)=O)CC3)c3cc(Cl)c(-c4c(O)cccc4F)c(F)c3n2)CC1 [CP-005]
6

1: C=CS(=O)(=O)NC1CCCN(c2nc(N3CCN(C(C)=O)CC3)c3cc(Cl)c(-c4c(O)cccc4F)c(F)c3n2)C1 (stereo not shown) [CP-001]
2: C=CC(=O)N1CCC(Nc2nc(N3CCN(C(C)=O)CC3)c3cc(Cl)c(-c4c(O)cccc4F)c(F)c3n2)C1 (stereo not shown) [CP-006]
// which entry has the larger % Covalent Modification with Indicated Protein at 6 hr, E62C/G12D value, 1 or 2 ? Please respond with the label that marks your chosen entry.
1
